test system: surinam grass; test: Test B pre/postemergence surinam grass; assay type: in vivo, Brachiaria decumbens; conditions: Rate 250 g/ha, Postemergence; scale of 0 to 10 where 0 is no effect and 10 is complete control
Could you please report measured Plant response rating, B. signalgrass for the items listed next?

The compound CCC=CCn1c(=O)on(C(=O)N(c2ccccc2)C(C)C)c1=O [Compound 582] showed Plant response rating, B. signalgrass equal to 0

The compound CC(C)N(C(=O)n1oc(=O)n(CCCCF)c1=O)c1ccc(F)cc1F [Compound 522] showed Plant response rating, B. signalgrass equal to 7

The compound CCC(CC)n1c(=O)on(C(=O)N(c2ccccc2)C(C)C)c1=O [Compound 354] showed Plant response rating, B. signalgrass equal to 0

The compound CC(C)N(C(=O)n1oc(=O)n(-c2ccc3ccccc3c2)c1=O)c1ccc(Cl)cc1 [Compound 333] showed Plant response rating, B. signalgrass equal to 0

The compound CC(C)N(C(=O)n1oc(=O)n(CCCF)c1=O)c1ccccc1 [Compound 559] showed Plant response rating, B. signalgrass equal to 9

The compound CC(C)N(C(=O)n1oc(=O)n(CC2CCC2)c1=O)c1ccccc1 [Compound 580] showed Plant response rating, B. signalgrass equal to 5
